meta.source: ChEMBL document CHEMBL1134554

Test: Pharmacokinetic data in Beagle dogs at 0.5 mg/kg intravenous dose.
Assay type: ADME, organism-based, Canis lupus familiaris
Design: dose 0.5 mg/kg, route intravenous
Details: dog, in vivo, read-out: Vss
Measured endpoint: Vd (L/kg)
Please give a number only; it is taken to be in L/kg.

Query :: If you can, please state the reported Vd value of "CC(C)C[C@H]1C(=O)N[C@H](C(=O)NCC(=O)N2CCOCC2)CCCCNC(=O)OCCC[C@@H]1C(=O)NO" .
Result :: 0.33

* * *

Test: Pharmacokinetic data in Beagle dogs at 0.5 mg/kg intravenous dose.
Assay type: ADME, organism-based, Canis lupus familiaris
Set-up: dose 0.5 mg/kg, route intravenous
Conditions: dog, in vivo
Measured endpoint: clearance (mL/min/kg)
Respond numerically; units are mL/min/kg and should not be typed.

Query :: Which clearance is reported for this compound? "CC(C)C[C@H]1C(=O)N[C@H](C(=O)NCC(=O)N2CCOCC2)CCCCNC(=O)OCCC[C@@H]1C(=O)NO"
Result :: 4.83
